Sourced from patent US9795596B2

biological target: PI3Kα wildtype (wt) (Bos taurus)
Sequence (P32871 whole entry, one chain of several): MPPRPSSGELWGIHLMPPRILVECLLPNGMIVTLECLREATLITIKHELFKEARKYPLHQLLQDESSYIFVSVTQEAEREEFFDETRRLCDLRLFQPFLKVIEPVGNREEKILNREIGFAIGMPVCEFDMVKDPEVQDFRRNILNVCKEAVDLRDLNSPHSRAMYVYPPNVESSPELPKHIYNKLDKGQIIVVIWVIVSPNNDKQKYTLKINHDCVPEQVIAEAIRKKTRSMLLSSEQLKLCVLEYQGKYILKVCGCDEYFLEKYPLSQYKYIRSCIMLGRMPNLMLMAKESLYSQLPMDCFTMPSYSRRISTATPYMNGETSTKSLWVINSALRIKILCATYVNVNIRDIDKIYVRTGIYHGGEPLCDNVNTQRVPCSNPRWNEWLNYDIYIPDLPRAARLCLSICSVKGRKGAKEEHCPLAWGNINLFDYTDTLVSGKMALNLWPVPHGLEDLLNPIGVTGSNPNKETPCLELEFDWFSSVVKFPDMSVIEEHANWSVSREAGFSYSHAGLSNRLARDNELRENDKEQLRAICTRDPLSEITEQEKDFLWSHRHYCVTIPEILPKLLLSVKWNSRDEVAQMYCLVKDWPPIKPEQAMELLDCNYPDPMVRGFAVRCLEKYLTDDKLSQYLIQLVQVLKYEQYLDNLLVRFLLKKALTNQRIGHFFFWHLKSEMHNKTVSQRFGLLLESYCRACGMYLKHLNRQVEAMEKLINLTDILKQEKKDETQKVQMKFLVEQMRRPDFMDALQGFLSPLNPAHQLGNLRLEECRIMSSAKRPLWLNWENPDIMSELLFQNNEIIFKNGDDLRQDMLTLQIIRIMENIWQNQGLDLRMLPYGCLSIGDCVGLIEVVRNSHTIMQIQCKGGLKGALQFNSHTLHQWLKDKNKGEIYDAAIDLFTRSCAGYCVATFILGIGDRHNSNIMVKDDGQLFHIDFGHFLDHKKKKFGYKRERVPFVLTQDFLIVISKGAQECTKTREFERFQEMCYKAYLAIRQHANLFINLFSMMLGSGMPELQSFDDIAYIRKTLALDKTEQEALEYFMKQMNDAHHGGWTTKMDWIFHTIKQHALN
pIC50: −log10 of the molar value.
Parameter measured: pIC50

> print(dat)
                                test.smiles  numeric.result
1  Cc1nc(NC(=O)N2CCC[C@H]2C(N)=O)sc1-c1ccnc(C(C)(C)C(F)(F)F)c1            8.08

====

biological target: PI3Kα Q859A mutant (Bos taurus, UniProt P32871, Q859A); construct: His; assay: Enzymatic HTRF assay, PI3Kα Q859A mutant; conditions: PI3Kα Q859A mutant p110α/p85α, 30 μM ATP, 20 μM PIP2, 60 min, mean ± S.E. of 7 experiments
Sequence (P32871 whole entry Q859A): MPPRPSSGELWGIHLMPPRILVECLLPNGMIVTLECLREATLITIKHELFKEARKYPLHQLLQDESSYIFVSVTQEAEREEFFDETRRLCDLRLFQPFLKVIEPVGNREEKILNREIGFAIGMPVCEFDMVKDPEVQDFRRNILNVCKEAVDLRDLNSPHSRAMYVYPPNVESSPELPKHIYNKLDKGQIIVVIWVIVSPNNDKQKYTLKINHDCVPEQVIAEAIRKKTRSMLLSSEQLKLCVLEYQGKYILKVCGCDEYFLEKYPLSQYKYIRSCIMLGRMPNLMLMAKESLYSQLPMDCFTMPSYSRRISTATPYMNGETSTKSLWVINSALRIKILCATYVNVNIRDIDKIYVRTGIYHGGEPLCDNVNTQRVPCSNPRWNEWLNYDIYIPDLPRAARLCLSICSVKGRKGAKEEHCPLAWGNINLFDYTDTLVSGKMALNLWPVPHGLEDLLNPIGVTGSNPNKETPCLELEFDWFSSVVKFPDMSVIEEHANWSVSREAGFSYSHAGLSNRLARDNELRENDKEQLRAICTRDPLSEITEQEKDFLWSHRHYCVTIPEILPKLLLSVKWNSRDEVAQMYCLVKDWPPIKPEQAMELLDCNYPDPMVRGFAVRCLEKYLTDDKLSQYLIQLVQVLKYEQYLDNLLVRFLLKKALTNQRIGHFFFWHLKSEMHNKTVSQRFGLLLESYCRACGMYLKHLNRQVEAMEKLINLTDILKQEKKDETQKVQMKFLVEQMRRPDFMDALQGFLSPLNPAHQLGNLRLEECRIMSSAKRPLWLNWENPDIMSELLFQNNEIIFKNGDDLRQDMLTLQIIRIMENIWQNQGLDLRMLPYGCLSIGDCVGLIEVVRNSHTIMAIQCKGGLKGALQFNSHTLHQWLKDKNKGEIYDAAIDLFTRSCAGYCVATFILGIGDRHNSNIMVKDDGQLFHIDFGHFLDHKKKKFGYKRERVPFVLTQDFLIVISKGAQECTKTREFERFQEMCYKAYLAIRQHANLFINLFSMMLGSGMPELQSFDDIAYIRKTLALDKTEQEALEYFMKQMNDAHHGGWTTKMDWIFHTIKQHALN
Sequence (P27986 whole entry partner): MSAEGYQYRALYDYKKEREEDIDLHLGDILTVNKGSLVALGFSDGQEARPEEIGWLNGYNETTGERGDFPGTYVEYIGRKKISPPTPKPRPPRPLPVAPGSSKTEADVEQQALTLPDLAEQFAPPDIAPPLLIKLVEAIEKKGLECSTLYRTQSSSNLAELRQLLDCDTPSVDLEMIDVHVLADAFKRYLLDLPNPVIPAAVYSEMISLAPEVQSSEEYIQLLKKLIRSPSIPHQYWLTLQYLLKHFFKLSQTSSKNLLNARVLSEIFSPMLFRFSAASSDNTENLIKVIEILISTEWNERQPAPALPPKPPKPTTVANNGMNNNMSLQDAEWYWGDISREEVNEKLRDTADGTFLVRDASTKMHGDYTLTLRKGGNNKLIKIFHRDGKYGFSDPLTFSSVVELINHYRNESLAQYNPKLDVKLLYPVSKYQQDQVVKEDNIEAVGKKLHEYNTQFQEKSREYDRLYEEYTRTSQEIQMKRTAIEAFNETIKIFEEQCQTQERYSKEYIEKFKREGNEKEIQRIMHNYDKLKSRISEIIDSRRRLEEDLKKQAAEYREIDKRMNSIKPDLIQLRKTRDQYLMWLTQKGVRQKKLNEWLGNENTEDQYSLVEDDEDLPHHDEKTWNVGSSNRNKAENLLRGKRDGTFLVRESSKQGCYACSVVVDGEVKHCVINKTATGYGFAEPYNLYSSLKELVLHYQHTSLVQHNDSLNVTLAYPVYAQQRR
pIC50: −log10 of the molar value.
Parameter measured: pIC50

> print(dat)
                                test.smiles  numeric.result
1  Cc1nc(NC(=O)N2CCC[C@H]2C(N)=O)sc1-c1ccnc(C(C)(C)C(F)(F)F)c1            6.91
